biological target: Aurora B/INCENP (Homo sapiens); assay: Determination of inhibition of AIK: Aurora B/INCENP direct fluorescence polarization (IMAP) assay; conditions: 10 uM ATP, 0.8 nM Aurora B/INCENP; values given as bins; read-out: IC50 of Exemplified Compounds Against AIK B
Quantity Name: IC50

Param readout = IC50; param system = Aurora B/INCENP (Homo sapiens); param query = COc1ccc(-c2cccc(NC(=O)C3CC3)c2)c2c1[nH]c1ncc(C)cc12 ; response: value
8.6 to 13 nM

Param readout = IC50; param system = Aurora B/INCENP (Homo sapiens); param query = CCS(=O)(=O)c1cccc(-c2cnc(C#N)c3[nH]c4ncc(C)cc4c23)c1 ; response: value
8.6 to 13 nM

Param readout = IC50; param system = Aurora B/INCENP (Homo sapiens); param query = O=S(=O)(c1cccc(-c2ccc(OCCN3CCC(O)CC3)c3[nH]c4ncc(Cl)cc4c23)c1)C1CC1 ; response: value
< 4 nM

Param readout = IC50; param system = Aurora B/INCENP (Homo sapiens); param query = CCS(=O)(=O)c1cccc(-c2ccc(OCc3cccc(F)n3)c3[nH]c4ncc(C)cc4c23)c1 ; response: value
< 4 nM

Param readout = IC50; param system = Aurora B/INCENP (Homo sapiens); param query = CCS(=O)(=O)c1cccc(-c2ccc(OC)c3[nH]c4ncc(Cl)cc4c23)c1 ; response: value
< 4 nM

Param readout = IC50; param system = Aurora B/INCENP (Homo sapiens); param query = CCS(=O)(=O)c1cccc(-c2ccc(OCCN3CCN(C)CC3)c3[nH]c4ncc(Cl)cc4c23)c1 ; response: value
5.6 to 8.5 nM

Param readout = IC50; param system = Aurora B/INCENP (Homo sapiens); param query = COc1ccc(-c2cccc(C(=O)N3CCOCC3)c2)c2c1[nH]c1ncc(C)cc12 ; response: value
> 13 nM

Param readout = IC50; param system = Aurora B/INCENP (Homo sapiens); param query = CCN1CCC(COc2ncc(-c3cccc(S(=O)(=O)CC)c3)c3c2[nH]c2ncc(C)cc23)CC1 ; response: value
5.6 to 8.5 nM

Param readout = IC50; param system = Aurora B/INCENP (Homo sapiens); param query = CCS(=O)(=O)c1cccc(-c2cc(C(=O)NC3CCNCC3)c(C)c3[nH]c4ncc(C)cc4c23)c1 ; response: value
8.6 to 13 nM

Param readout = IC50; param system = Aurora B/INCENP (Homo sapiens); param query = CCS(=O)(=O)c1cccc(-c2cccc3[nH]c4ncccc4c23)c1 ; response: value
> 13 nM

Param readout = IC50; param system = Aurora B/INCENP (Homo sapiens); param query = CCS(=O)(=O)c1cccc(-c2cnc(OC[C@@H](O)CO)c3[nH]c4ncc(C)cc4c23)c1 ; response: value
4 to 5.5 nM

Param readout = IC50; param system = Aurora B/INCENP (Homo sapiens); param query = Cc1cnc2[nH]c3c(OC[C@H]4CN(CCOP(=O)(O)O)CCO4)ccc(-c4cccc(S(=O)(=O)C5CC5)c4)c3c2c1 ; response: value
< 4 nM

Param readout = IC50; param system = Aurora B/INCENP (Homo sapiens); param query = CCS(=O)(=O)c1cccc(-c2ccc(O[C@H](C)CCO)c3[nH]c4ncc(C)cc4c23)c1 ; response: value
4 to 5.5 nM

Param readout = IC50; param system = Aurora B/INCENP (Homo sapiens); param query = CCS(=O)(=O)c1cccc(-c2ccc(O[C@@H](C)COP(=O)(O)O)c3[nH]c4ncc(C)cc4c23)c1 ; response: value
4 to 5.5 nM

Param readout = IC50; param system = Aurora B/INCENP (Homo sapiens); param query = CCS(=O)(=O)c1cccc(-c2cc(C(=O)NCC(C)(C)O)c(C)c3[nH]c4ncc(C)cc4c23)c1 ; response: value
8.6 to 13 nM

###

molecular target: Aurora B/INCENP (Homo sapiens, UniProt Q96GD4); test: Determination of inhibition of AIK: Aurora B/INCENP direct fluorescence polarization (IMAP) assay; conditions: 10 uM ATP, 0.8 nM Aurora B/INCENP; values given as bins; read-out: IC50 of Exemplified Compounds Against AIK B
Sequence (Q96GD4 whole entry): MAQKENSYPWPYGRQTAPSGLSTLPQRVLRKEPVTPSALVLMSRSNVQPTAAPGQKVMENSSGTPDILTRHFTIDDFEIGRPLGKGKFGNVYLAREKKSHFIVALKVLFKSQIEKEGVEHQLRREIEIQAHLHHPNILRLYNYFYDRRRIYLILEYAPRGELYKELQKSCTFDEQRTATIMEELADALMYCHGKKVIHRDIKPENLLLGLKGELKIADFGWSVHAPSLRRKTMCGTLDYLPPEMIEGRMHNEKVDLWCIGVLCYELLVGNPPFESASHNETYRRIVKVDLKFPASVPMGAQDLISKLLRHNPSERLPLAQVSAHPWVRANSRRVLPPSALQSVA
Sequence (Q9NQS7 whole entry partner): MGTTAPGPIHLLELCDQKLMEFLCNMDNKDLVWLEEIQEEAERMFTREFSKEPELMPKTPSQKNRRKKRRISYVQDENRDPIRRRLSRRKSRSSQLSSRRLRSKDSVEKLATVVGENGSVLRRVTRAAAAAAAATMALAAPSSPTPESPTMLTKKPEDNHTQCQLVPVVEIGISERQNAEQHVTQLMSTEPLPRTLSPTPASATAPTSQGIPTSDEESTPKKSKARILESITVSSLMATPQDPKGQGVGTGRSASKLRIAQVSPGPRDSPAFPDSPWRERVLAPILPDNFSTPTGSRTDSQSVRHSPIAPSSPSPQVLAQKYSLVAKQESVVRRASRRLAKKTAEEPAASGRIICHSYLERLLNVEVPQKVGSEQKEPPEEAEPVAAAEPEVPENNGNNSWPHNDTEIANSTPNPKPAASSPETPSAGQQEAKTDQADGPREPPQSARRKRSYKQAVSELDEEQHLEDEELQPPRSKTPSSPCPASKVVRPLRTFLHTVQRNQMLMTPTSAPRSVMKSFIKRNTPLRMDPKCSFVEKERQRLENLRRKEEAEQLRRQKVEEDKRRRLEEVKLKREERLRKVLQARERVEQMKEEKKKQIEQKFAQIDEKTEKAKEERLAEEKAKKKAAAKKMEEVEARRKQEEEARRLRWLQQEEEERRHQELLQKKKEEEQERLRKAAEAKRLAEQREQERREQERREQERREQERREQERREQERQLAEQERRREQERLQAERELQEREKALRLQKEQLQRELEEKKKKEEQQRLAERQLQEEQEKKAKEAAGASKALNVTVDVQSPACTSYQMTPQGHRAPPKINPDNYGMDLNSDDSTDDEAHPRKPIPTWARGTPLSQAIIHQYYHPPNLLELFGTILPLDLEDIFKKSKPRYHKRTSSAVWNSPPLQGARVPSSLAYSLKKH
Quantity Name: IC50

compound="CCS(=O)(=O)c1cccc(-c2cc(C(=O)NCC(O)CO)c(C)c3[nH]c4ncc(C)cc4c23)c1 (centres unmarked)" quantity_name=IC50 reported_measurement="4 to 5.5 nM"
compound=COc1ccc(-c2cccc(NC(C)=O)c2)c2c1[nH]c1ncc(C)cc12 quantity_name=IC50 reported_measurement="5.6 to 8.5 nM"
compound=CCS(=O)(=O)c1cccc(-c2ccc(OCCCOC(=O)[C@H](C)N)c3[nH]c4ncc(C)cc4c23)c1 quantity_name=IC50 reported_measurement="5.6 to 8.5 nM"
compound=CCS(=O)(=O)c1cccc(-c2ccc(OCC3CCN(C)CC3)c3[nH]c4ncc(C#N)cc4c23)c1 quantity_name=IC50 reported_measurement="5.6 to 8.5 nM"
compound=CCS(=O)(=O)c1cccc(-c2cc(C(=O)N3CCOCC3)c(C)c3[nH]c4ncc(C)cc4c23)c1 quantity_name=IC50 reported_measurement="8.6 to 13 nM"
compound=CCS(=O)(=O)c1cccc(-c2ccc(OCC3CCNCC3)c3[nH]c4ncc(Cl)cc4c23)c1 quantity_name=IC50 reported_measurement="< 4 nM"
compound=CCOc1ccc(-c2cccc(S(=O)(=O)CC)c2)c2c1[nH]c1ncc(C)cc12 quantity_name=IC50 reported_measurement="5.6 to 8.5 nM"
compound=Cc1cnc2[nH]c3c(C)c(C(=O)NCCN(C)C)cc(-c4cccc(C(=O)NC5CC5)c4)c3c2c1 quantity_name=IC50 reported_measurement="> 13 nM"

Which IC50 is listed for CCN(CC)CCCOc1ccc(-c2cccc(S(=O)(=O)CC)c2)c2c1[nH]c1ncc(C)cc12 ?
8.6 to 13 nM

Which IC50 is listed for CCS(=O)(=O)c1cccc(-c2ccc(OCCC#N)c3[nH]c4ncc(C)cc4c23)c1 ?
> 13 nM

###

molecular target: Aurora B/INCENP (Homo sapiens, UniProt Q96GD4); experiment: Determination of inhibition of AIK: Aurora B/INCENP direct fluorescence polarization (IMAP) assay; settings: 10 uM ATP, 0.8 nM Aurora B/INCENP; values given as bins; read-out: IC50 of Exemplified Compounds Against AIK B
pIC50: −log10 of the molar value.
Quantity Name: pIC50

structure_string=Cc1cnc2[nH]c3cc(C(=O)NCCN(C)C)cc(SCc4ccccc4)c3c2c1 quantity_name=pIC50 reported_measurement="< 7.89"
structure_string=Cc1cnc2[nH]c3c(OC[C@H](O)CN4CCOCC4)ccc(-c4cccc(S(=O)(=O)C5CC5)c4)c3c2c1 quantity_name=pIC50 reported_measurement="8.26 to 8.40"
structure_string=COc1ccc(-c2cccc(S(=O)(=O)N3CCCC3)c2)c2c1[nH]c1ncc(C)cc12 quantity_name=pIC50 reported_measurement="7.89 to 8.07"

Which pIC50 is listed for CCS(=O)(=O)c1cccc(-c2ccc(OCCO)c3[nH]c4ncc(C)cc4c23)c1 ?
8.07 to 8.25

Which pIC50 is listed for CCOc1ncc(-c2cccc(S(=O)(=O)CC)c2)c2c1[nH]c1ncc(C)cc12 ?
8.07 to 8.25

Which pIC50 is listed for Cc1cnc2[nH]c3c(OCC4CCN(C)CC4)ccc(-c4cccc(S(=O)(=O)C5CC5)c4)c3c2c1 ?
8.07 to 8.25

Which pIC50 is listed for CCN(CCCOc1ccc(-c2cccc(C(=O)NC3CC3)c2)c2c1[nH]c1ncc(C)cc12)CCOP(=O)(O)O ?
8.07 to 8.25

Which pIC50 is listed for Cc1cnc2[nH]c3c(OCC4CCN(C)CC4)ccc(-c4cccc(NC(=O)C5CC5)c4)c3c2c1 ?
8.07 to 8.25

Which pIC50 is listed for CCS(=O)(=O)c1cccc(-c2cc(C(=O)NCCCN3CCN(C)CC3)c(C)c3[nH]c4ncc(C)cc4c23)c1 ?
< 7.89

Which pIC50 is listed for COc1ccc(-c2cccc(C(=O)NC3CC3)c2)c2c1[nH]c1ncc(C)cc12 ?
8.07 to 8.25

###

Molecular target: Aurora B/INCENP (Homo sapiens)
Test: Determination of inhibition of AIK: Aurora B/INCENP direct fluorescence polarization (IMAP) assay
Assay type: biochemical
Conditions: 10 uM ATP, 0.8 nM Aurora B/INCENP; values given as bins; read-out: IC50 of Exemplified Compounds Against AIK B
Experimental: Detection of the reaction product is performed by addition of Progressive IMAP binding reagent (Molecular Devices). Reaction product may be determined quantitatively by FP using an Analyst HT plate reader (Molecular Devices) with an excitation wavelength at 485 nm and emission at 530 nm and using a Fluorescein 505 dichroic mirror. […] IC50 values may be calculated by non-linear curve fitting of the compound concentrations and fluorescent polarization values to the standard IC50 equation.
pIC50: −log10 of the molar value.
Reported values of pIC50 for individual entries

Worked set:
structure_string=CCS(=O)(=O)c1cccc(-c2cc(C(=O)OC)cc3[nH]c4ncc(C)cc4c23)c1 target_desc="Aurora B/INCENP (Homo sapiens)" reported_measurement="7.89 to 8.07"
structure_string=O=S(=O)(NC1CC1)c1cccc(-c2cccc3[nH]c4ncccc4c23)c1 target_desc="Aurora B/INCENP (Homo sapiens)" reported_measurement="< 7.89"
structure_string=Cc1cnc2[nH]c3c(OC[C@@H](CN(C)C)OP(=O)(O)O)ccc(-c4cccc(S(=O)(=O)C5CC5)c4)c3c2c1 target_desc="Aurora B/INCENP (Homo sapiens)" reported_measurement="> 8.40"
structure_string=CCSc1cccc(-c2ccc(OCC3CCN(C)CC3)c3[nH]c4ncc(C)cc4c23)c1 target_desc="Aurora B/INCENP (Homo sapiens)" reported_measurement="< 7.89"
structure_string=CCS(=O)(=O)c1cccc(-c2ccc(O[C@@H](C)CCO)c3[nH]c4ncc(C)cc4c23)c1 target_desc="Aurora B/INCENP (Homo sapiens)" reported_measurement="8.26 to 8.40"

Which pIC50 is listed for CCS(=O)(=O)c1cccc(-c2ccc(OCCCN(C)CCO)c3[nH]c4ncc(C)cc4c23)c1 ?
> 8.40

Which pIC50 is listed for CCS(=O)(=O)c1cccc(-c2ccc(OC[C@@H](O)CO)c3[nH]c4ncc(C)cc4c23)c1 ?
8.26 to 8.40

Which pIC50 is listed for CCNS(=O)(=O)c1cccc(-c2cc(C(=O)NC3CCN(C)CC3)c(C)c3[nH]c4ncc(C)cc4c23)c1 ?
< 7.89

Which pIC50 is listed for CCS(=O)(=O)c1cccc(-c2cnc(OCC(C)(C)O)c3[nH]c4ncc(C)cc4c23)c1 ?
7.89 to 8.07

Which pIC50 is listed for CCS(=O)(=O)c1cccc(-c2ccc(OCCO)c3[nH]c4ncc(Cl)cc4c23)c1 ?
8.26 to 8.40

Which pIC50 is listed for CCS(=O)(=O)c1cccc(-c2ccc(OC[C@H]3CCNC3)c3[nH]c4ncc(C)cc4c23)c1 ?
7.89 to 8.07
